Cited source for all entries: patent US9655906B2

Please provide measured Ki for the entries that follow.
Assay Target: human 5-HT2C receptor (Homo sapiens)
Construct: expressed in transfected cells
Sequence (P28335 33-458): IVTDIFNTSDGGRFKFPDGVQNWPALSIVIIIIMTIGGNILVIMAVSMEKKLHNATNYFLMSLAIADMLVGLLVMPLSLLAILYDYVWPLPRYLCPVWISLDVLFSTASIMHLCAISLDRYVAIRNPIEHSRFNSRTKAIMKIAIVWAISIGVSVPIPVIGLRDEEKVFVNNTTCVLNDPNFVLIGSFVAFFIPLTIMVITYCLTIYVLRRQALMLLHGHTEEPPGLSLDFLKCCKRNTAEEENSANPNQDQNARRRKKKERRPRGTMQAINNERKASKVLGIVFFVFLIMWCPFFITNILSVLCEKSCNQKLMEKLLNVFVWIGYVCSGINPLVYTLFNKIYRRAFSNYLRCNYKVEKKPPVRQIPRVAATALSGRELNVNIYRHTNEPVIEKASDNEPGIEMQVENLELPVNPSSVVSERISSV
Measurement Notes: Test B: binding to human 5-HT2C serotonin receptor, [3H]-mesulergine displacement
Test Parameters: membranes from CHO-K1 cells expressing human 5-HT2C; 1 nM [3H]-mesulergine; 1 hour at 25° C.; read-out: (h)5-HT2c (pKi) (converted)
Protocol: 69: 1449-1458. In particular, binding to the human serotonin 5-HT2C receptor was performed using, as starting material, a preparation of membranes from stable recombinant CHO-K1 cell line expressing the human 5-HT2C receptor. […] The non-specific binding was measured in the presence of 1 μM mianserin. […] The scintillation liquid was added to each well, and at least 16 hours later the radioactivity was measured for 1 minute using a TopCount (Packard). […]
Where a name gives a salt, the structure may show the parent alone.
# number only, unit µM dropped from output

Which Ki is reported for this compound? Cl.O=C1c2c3ccccc3nn2CCN1CC1CCN(CCc2ccc(F)cc2)CC1 [Compound 1, hydrochloride]
1.7

What about this compound? Cc1cc2c(cc1Cl)N(C(=O)Nc1ccc(Oc3cccnc3C)nc1)CC2 [SB 242084, reference compound]
0.000468

What about this compound? O=C1c2c3c(nn2CCN1CC1CCN(CCc2ccc(F)cc2)CC1)CCCC3 [Compound 17, hydrochloride]
7.41
